Experiment: In Vitro GIRK Thallium Flux Assay (60 minutes): Human Embryonic Kidney (HEK-293) cell lines co-expressing rat mGlu receptors 2, 3, 4, 6, 7 or 8 and G protein-coupled inwardly-rectifying potassium (GIRK) channels_ENREF_54 were grown in Growth Media containing 45% DMEM, 45% F-12, 10% FBS, 20 mM HEPES, 2 mM L-glutamine, antibiotic/antimycotic, non-essential amino acids, 700 μg/ml G418, and 0.6 μg/ml puromycin at 37° C. in the presence of 5% CO2. All cell culture reagents were purchased from Invitrogen Corp. (Carlsbad, Calif.) unless otherwise noted. Compound activity at the group II (mGlu2 and mGlu3) mGlus was assessed using thallium flux through GIRK channels. Briefly, cells were plated into 384-well, black-walled, clear-bottomed poly-D-lysine-coated plates at a density of 15,000 cells/20 μL/well in DMEM containing 10% dialyzed FBS, 20 mM HEPES, and 100 units/mL penicillin/streptomycin (assay media). Plated cells were incubated overnight at 37° C. in the presence of 5% CO2. The following day, the medium was exchanged from the cells to assay buffer [Hanks' balanced salt solution (Invitrogen) containing 20 mM HEPES, pH 7.3] using an ELX405 microplate washer (BioTek), leaving 20 μL/well, followed by the addition of 20 μL/well FluoZin2-AM (330 nM final concentration) indicator dye (Invitrogen; prepared as a stock in DMSO and mixed in a 1:1 ratio with Pluronic acid F-127) in assay buffer. Cells were incubated for 1 h at room temperature, and the dye exchanged to assay buffer using an ELX405, leaving 20 μL/well. Test compounds were diluted to 2 times their final desired concentration in assay buffer (0.3% DMSO final concentration). Agonists were diluted in thallium buffer [125 mM sodium bicarbonate (added fresh the morning of the experiment), 1 mM magnesium sulfate, 1.8 mM calcium sulfate, 5 mM glucose, 12 mM thallium sulfate, and 10 mM HEPES, pH 7.3] at 5 times the final concentration to be assayed. Cell plates and compound plates were loaded onto a kinetic imaging plate reader (FDSS 6000 or 7000; Hamamatsu Corporation, Bridgewater, N.J.). Appropriate baseline readings were taken (10 images at 1 Hz; excitation, 470±20 nm; emission, 540±30 nm) and test compounds were added in a 20 μL volume and incubated for either 2.5 min or 60 min as indicated before the addition of 10 μL of thallium buffer with or without agonist. After the addition of agonist, data were collected for approximately an additional 60 min. Data were analyzed using Excel (Microsoft Corp, Redmond, Wash.). The slope of the fluorescence increase beginning 5 s after thallium/agonist addition and ending 15 s after thallium/agonist addition was calculated, corrected to vehicle and maximal agonist control slope values, and plotted in using either XLfit (ID Business Solutions Ltd) or Prism software (GraphPad Software, San Diego, Calif.) to generate concentration-response curves. Potencies were calculated from fits using a four-point parameter logistic equation. For concentration-response curve experiments, compounds were serially diluted 1:3 into 10 point concentration response curves and were transferred to daughter plates using an Echo acoustic plate reformatter (Labcyte, Sunnyvale, Calif.). Test compounds were applied and followed by EC80 concentrations of glutamate.
assay.readout: pEC50
The value called pEC50 is obtained by taking minus log10 of the concentration in mol/L.

query: Look up pEC50: "O=C(O)c1cc(F)cc(-c2cccc(-c3nc(-c4ccoc4)cc(C(F)(F)F)n3)c2)c1"
result: 6.51

Data provenance is ChEMBL document CHEMBL5727031.
